- systemName: HLA-A*02:01;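 also: lysates heated 10 min at 37–73 °C, complexes pulled down with pan-HLA I antibody, peptide signal by DIA-MS relative to 37 °C, Tm where half the complex is unfolded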
- assayOverview: thermal melting temperature (Tm) of peptide-HLA complex; higher = more thermostable pHLA complex
- runParameters: C1R-A*02:01
In all, about 1,100 sequences were measured (“thermal melting temperature (Tm) of peptide-HLA complex”: median about 58, lowest 2% from about 42 on). Only a selection was taken, and the lowest values are over-represented in it overall.
Is thermal melting temperature at least 60 °C? Then True. If not, False.

polymerSequence	assignedCategory
IQDFEMPTV	False

Textbook exercise: given the entry `KLFNEFIQL` , state whether its thermal melting temperature is greater than or equal to 60 °C.
False

Would you say `HLDEAIHVL` shows thermal melting temperature at minimum 60 °C?
False

Please check the record `ALADFAELLRA` and state if its thermal melting temperature is at or above 60 °C.
True

Confirm if thermal melting temperature reported for the sequence `TLSDLRVYL` is 60 °C or above.
True

Assess whether reported thermal melting temperature for `ALLDRIVSV` sits at 60 °C or higher.
True

Assess whether reported thermal melting temperature for `ALLSGLREA` sits at 60 °C or higher.
True
